# assay_notes: Cmax in Sprague-Dawley rat brain at 3 mg/kg, po after 6 hrs by LC-MS/MS analysis
# Assay type: ADME, organism-based
# Parameters: route oral, dose 3 mg/kg, time 6 hrs
reported_property: Cmax (ng/g)
Answers are plain numbers, in ng/g.

Specify measured Cmax for "CN(C)C(=O)Cn1c(=O)n(C)c2ncc(-c3ccc(C(F)(F)F)s3)cc21" .
598

* * *

# assay_notes: Tmax in Sprague-Dawley rat brain at 3 mg/kg, po by LC-MS/MS analysis
# Format: ADME, organism-based
Would you mind telling me the reported Tmax of each entry?
Numbers only, in h.

These solved cases illustrate the format of a correct answer.
sample_smiles: Cn1c(=O)n(CC(=O)N2CCC2)c2cc(-c3ccc(C(F)(F)F)s3)cnc21
Tmax (h): 0.5
--
sample_smiles: Cn1c(=O)n(CC(=O)N2CC(F)C2)c2cc(-c3ccc(C(F)(F)F)s3)cnc21
Tmax (h): 2

Turning now to a further compound:
Specify measured Tmax for "CN(C)C(=O)Cn1c(=O)n(C)c2ncc(-c3ccc(C(F)(F)F)s3)cc21" .
2

* * *

# assay_notes: Drug level in Sprague-Dawley rat brain hippocampus at 0.03 mg/kg, iv after 120 min by LC-MS/MS analysis
# Type: ADME, organism-based
# condition_parameters: read-out: Drug uptake
reported_property: concentration at 2 h
// return the numeric value with its unit appended

Specify measured concentration at 2 h for "Cn1c(=O)n(CC(=O)N2CCC2)c2cc(-c3ccc(C(F)(F)F)s3)cnc21" .
10.1 ng/mL

* * *

# assay_notes: Solubility of compound in FASSIF at pH 6.8 measured after 3 days
# Format: physicochemical
# condition_parameters: time 3 day
reported_property: solubility at 72 h (µM)
Answers are plain numbers, in µM.

Specify measured solubility at 72 h for "Cn1c(=O)n(CC(=O)N2CCC2)c2cc(-c3ccc(C(F)(F)F)s3)cnc21" .
8.4

* * *

# assay_notes: Cmax in monkey at 0.5 mg/kg, po by LC-MS/MS analysis
# Assay type: ADME, organism-based, Macaca mulatta
# Set-up: route oral, dose 0.5 mg/kg
# condition_parameters: rhesus monkey, in vivo
reported_property: Cmax (ng/mL)
Answers are plain numbers, in ng/mL.

Specify measured Cmax for "Cn1c(=O)n(CC(=O)N2CCC2)c2cc(-c3ccc(C(F)(F)F)s3)cnc21" .
167

* * *

# assay_notes: Oral bioavailability in dog at 0.5 mg/kg by LC-MS/MS analysis
# Format: ADME, organism-based, Canis lupus familiaris
# condition_parameters: in vivo
reported_property: bioavailability (%)
Numbers only, in %.

Specify measured bioavailability for "Cn1c(=O)n(CC(=O)N2CCC2)c2cc(-c3ccc(C(F)(F)F)s3)cnc21" .
43

* * *

# tested_target: Cytochrome P450 2C8 (Homo sapiens, UniProt P10632)
# Sequence (P10632 whole entry): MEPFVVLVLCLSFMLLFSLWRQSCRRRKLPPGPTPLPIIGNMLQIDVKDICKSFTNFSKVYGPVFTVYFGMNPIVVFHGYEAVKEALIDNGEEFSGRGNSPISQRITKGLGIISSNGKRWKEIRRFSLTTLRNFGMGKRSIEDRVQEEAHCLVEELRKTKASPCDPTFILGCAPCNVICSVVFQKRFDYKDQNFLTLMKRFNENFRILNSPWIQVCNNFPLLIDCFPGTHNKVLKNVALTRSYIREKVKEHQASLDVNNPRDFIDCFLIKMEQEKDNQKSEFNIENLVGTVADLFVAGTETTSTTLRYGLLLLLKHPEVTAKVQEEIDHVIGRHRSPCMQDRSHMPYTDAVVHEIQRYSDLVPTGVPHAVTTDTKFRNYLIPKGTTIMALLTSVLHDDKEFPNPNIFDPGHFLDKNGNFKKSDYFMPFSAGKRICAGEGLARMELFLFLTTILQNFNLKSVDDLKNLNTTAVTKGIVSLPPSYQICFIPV
reported_property: IC50

Specify measured IC50 for "Cn1c(=O)n(CC(=O)N2CCC2)c2cc(-c3ccc(C(F)(F)F)s3)cnc21" .
> 50 µM

* * *

# assay_notes: AUC (infinity) in monkey at 0.5 mg/kg, po by LC-MS/MS analysis
# Assay type: ADME, organism-based, Macaca mulatta
# Design: route oral, time infinity, dose 0.5 mg/kg
# condition_parameters: rhesus monkey, in vivo
reported_property: AUC(0-inf)

Specify measured AUC(0-inf) for "Cn1c(=O)n(CC(=O)N2CCC2)c2cc(-c3ccc(C(F)(F)F)s3)cnc21" .
385 ng·h/mL

* * *

# assay_notes: Cmax in Sprague-Dawley rat at 1000 mg/kg, po administered via gavage after 24 hrs using HPMC formulation by LC-MS/MS analysis
# Format: ADME, organism-based
# Set-up: route oral, dose 1000 mg/kg, time 24 hrs
# condition_parameters: in vivo
reported_property: Cmax (ng/mL)
One number for each entry, in ng/mL.

Specify measured Cmax for "Cn1c(=O)n(CC(=O)N2CCC2)c2cc(-c3ccc(C(F)(F)F)s3)cnc21" .
7010

* * *

# assay_notes: Cmax in Sprague-Dawley rat at 0.5 mg/kg, iv or 2.5 mg/kg, po using 20% HP-beta-CD formulation by LC-MS/MS analysis
# Format: ADME, organism-based
# Design: dose 2.5 mg/kg
# condition_parameters: in vivo
reported_property: Cmax (ng/mL)
Numbers only, in ng/mL.

Specify measured Cmax for "Cc1ccc(-c2cnc3c(c2)n(CC(=O)N2CCC2)c(=O)n3C)s1" .
6

* * *

# assay_notes: Protein binding in human plasma assessed as unbound fraction at 0.5 uM after 6 hrs by equilibrium dialysis method
# Type: ADME, cell-free
reported_property: fraction unbound at 6 h, 0.5 µM
One number for each entry.

Specify measured fraction unbound at 6 h, 0.5 µM for "Cn1c(=O)n(CC(=O)N2CCC2)c2cc(-c3ccc(C(F)(F)F)s3)cnc21" .
0.046

* * *

# assay_notes: Oral bioavailability in Sprague-Dawley rat at 2.5 mg/kg using 30% SBE-beta-CD formulation by LC-MS/MS analysis
# Assay type: ADME, organism-based
# condition_parameters: in vivo
reported_property: bioavailability (%)
Give bare numbers, in %.

Specify measured bioavailability for "Cn1c(=O)n(CC(=O)N2CC(F)C2)c2cc(-c3ccc(C(F)(F)F)s3)cnc21" .
109

* * *

# assay_notes: Drug level in Sprague-Dawley rat brain hippocampus at 0.03 mg/kg, iv after 60 min by LC-MS/MS analysis
# Format: ADME, organism-based
# condition_parameters: read-out: Drug uptake
reported_property: concentration at 1 h (ng/mL)
One number for each entry, in ng/mL.

Specify measured concentration at 1 h for "Cn1c(=O)n(CC(=O)N2CCC2)c2cc(-c3ccc(C(F)(F)F)s3)cnc21" .
20.9

* * *

# assay_notes: Half life in monkey at 0.1 mg/kg, iv by LC-MS/MS analysis
# Assay type: ADME, organism-based, Macaca mulatta
# condition_parameters: rhesus monkey, in vivo
reported_property: half-life (h)
Numbers only, in h.

Specify measured half-life for "Cn1c(=O)n(CC(=O)N2CCC2)c2cc(-c3ccc(C(F)(F)F)s3)cnc21" .
1.1

* * *

# assay_notes: AUC (0 to 24 hrs) in Sprague-Dawley rat at 500 mg/kg/day, po administered as nanosuspension measured for 14 days measured post last dose by LC-MS/MS analysis
# Assay type: ADME, organism-based
# Set-up: route oral, dose 500 mg/kg/day, time 14 day
# condition_parameters: in vivo
reported_property: AUC at 336 h (µg·h/mL)
One number for each entry, in µg·h/mL.

Specify measured AUC at 336 h for "Cn1c(=O)n(CC(=O)N2CCC2)c2cc(-c3ccc(C(F)(F)F)s3)cnc21" .
222

* * *

# tested_target: UniProt:P08684
# Sequence (P08684 whole entry): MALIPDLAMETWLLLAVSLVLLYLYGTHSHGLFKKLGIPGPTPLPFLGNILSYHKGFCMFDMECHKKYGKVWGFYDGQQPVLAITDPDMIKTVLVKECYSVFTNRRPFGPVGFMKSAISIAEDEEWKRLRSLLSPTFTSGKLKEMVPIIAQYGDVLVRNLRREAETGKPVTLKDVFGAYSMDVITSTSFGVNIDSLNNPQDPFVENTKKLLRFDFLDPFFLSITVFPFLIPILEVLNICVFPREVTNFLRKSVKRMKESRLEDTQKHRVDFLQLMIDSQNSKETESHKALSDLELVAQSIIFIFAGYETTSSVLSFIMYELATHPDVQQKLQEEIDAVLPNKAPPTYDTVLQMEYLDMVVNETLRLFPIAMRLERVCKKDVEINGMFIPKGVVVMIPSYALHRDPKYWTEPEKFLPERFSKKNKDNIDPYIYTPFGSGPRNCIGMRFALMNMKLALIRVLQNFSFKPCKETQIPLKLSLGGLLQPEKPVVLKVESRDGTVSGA
# assay_notes: Inhibition of CYP3A4 in human liver microsomes using nifedipine as substrate measured after 15 mins by LC-MS/MS analysis
# Assay type: ADME
reported_property: IC50

Report its IC50 with UniProt:P08684 as the test system: "Cn1c(=O)n(CC(=O)N2CCC2)c2cc(-c3ccc(C(F)(F)F)s3)cnc21"
> 50 µM

* * *

# tested_target: Cytochrome P450 2C19 (Homo sapiens, UniProt P33261)
# Sequence (P33261 whole entry): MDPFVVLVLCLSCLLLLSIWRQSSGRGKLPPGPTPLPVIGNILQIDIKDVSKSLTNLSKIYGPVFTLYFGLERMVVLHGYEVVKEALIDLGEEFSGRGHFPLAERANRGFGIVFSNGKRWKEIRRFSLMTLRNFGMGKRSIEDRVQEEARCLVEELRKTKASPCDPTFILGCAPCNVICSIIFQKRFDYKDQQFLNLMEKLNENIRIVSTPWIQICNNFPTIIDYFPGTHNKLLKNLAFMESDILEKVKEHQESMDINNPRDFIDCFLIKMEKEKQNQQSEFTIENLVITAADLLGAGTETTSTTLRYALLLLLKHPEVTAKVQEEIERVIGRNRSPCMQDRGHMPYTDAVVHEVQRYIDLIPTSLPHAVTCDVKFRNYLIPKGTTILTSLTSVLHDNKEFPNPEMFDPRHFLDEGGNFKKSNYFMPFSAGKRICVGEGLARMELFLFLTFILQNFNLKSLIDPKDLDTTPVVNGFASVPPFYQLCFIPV
pIC50: −log10 of the molar value.
reported_property: pIC50

Specify measured pIC50 for "Cn1c(=O)n(CC(=O)N2CCC2)c2cc(-c3ccc(C(F)(F)F)s3)cnc21" .
< 4.30

* * *

# assay_notes: Tmax in Sprague-Dawley rat at 2.5 mg/kg, po by LC-MS/MS analysis
# Assay type: ADME, organism-based
# condition_parameters: in vivo
reported_property: Tmax (h)
Numbers only, in h.

Specify measured Tmax for "Cn1c(=O)n(CC(=O)N2CCC2)c2cc(-c3ccc(C(F)(F)F)s3)cnc21" .
1.3

* * *

# assay_notes: AUC (0 to 24 hrs) in Sprague-Dawley rat at 500 mg/kg, po administered via gavage after 24 hrs using HPMC formulation by LC-MS/MS analysis
# Assay type: ADME, organism-based
# Parameters: route oral, dose 500 mg/kg, time <=24
# condition_parameters: in vivo
reported_property: AUC(0-t) (ng·h/mL)
Give bare numbers, in ng·h/mL.

Specify measured AUC(0-t) for "Cn1c(=O)n(CC(=O)N2CCC2)c2cc(-c3ccc(C(F)(F)F)s3)cnc21" .
22500

* * *

# assay_notes: Intrinsic clearance in rat liver microsomes at 1 uM after 5 to 60 mins in presence of NADPH by LC-MS/MS analysis
# Format: ADME, Microsome
# condition_parameters: time 5-60 min, read-out: CLH
reported_property: microsomal CLint at 1 µM (µL/min/mg)
One number for each entry, in µL/min/mg.

Specify measured microsomal CLint at 1 µM for "Cn1c(=O)n(CC(=O)N2CCC2)c2cc(-c3ccc(C(F)(F)F)s3)cnc21" .
26.3

* * *

# assay_notes: Tmax in Sprague-Dawley rat at 0.1 mg/kg, iv or 0.5 mg/kg, po by LC-MS/MS analysis
# Type: ADME, organism-based
# condition_parameters: in vivo
reported_property: Tmax (h)
One number for each entry, in h.

Specify measured Tmax for "CN(C)C(=O)Cn1c(=O)n(C)c2ncc(-c3ccc(C(F)(F)F)s3)cc21" .
1
